Target: UniProtKB P35218
Sequence (P35218 whole entry): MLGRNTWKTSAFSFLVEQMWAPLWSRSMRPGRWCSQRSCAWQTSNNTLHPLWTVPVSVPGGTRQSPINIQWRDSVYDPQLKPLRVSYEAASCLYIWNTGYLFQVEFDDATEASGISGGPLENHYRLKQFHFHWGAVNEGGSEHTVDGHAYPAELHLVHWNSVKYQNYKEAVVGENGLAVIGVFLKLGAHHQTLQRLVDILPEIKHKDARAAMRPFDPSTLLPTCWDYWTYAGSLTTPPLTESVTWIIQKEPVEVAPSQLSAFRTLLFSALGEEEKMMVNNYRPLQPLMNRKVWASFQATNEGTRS
Assay: Inhibition of recombinant human Carbonic anhydrase 5A assessed as reduction in CO2 hydration preincubated for 15 mins prior to testing measured for 10 to 100 secs by stopped-flow assay
Measured Quantity: Ki (µM)

{"Molecule": "Cc1nc(N(C)C(=O)Cc2ccc(-c3ccccn3)cc2)sc1S(N)(=O)=O [PRITELIVIR]", "Value Measured": 0.474}
{"Molecule": "Cc1nc(N(C)C(=O)Cc2ccc(-c3ccccn3)cc2)sc1S(N)(=O)=O", "Value Measured": 0.816}

* * *

// reported pKi per item
Molecular target: Carbonic anhydrase 12 (Homo sapiens)
Sequence (O43570 whole entry): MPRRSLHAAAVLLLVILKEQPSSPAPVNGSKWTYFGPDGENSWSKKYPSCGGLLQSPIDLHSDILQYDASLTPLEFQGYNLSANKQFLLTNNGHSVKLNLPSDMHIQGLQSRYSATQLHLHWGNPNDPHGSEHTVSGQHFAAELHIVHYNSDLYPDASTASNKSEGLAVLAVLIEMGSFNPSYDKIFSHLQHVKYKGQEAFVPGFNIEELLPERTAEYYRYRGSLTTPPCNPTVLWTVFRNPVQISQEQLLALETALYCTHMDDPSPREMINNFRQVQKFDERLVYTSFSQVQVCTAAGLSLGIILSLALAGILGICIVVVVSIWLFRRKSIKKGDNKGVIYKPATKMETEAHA
Experiment: Inhibition of recombinant human Carbonic anhydrase 12 assessed as reduction in CO2 hydration preincubated for 15 mins prior to testing measured for 10 to 100 secs by stopped-flow assay
pKi: −log10 of the molar value.
Measured Quantity: pKi

{"Compound": "Cc1nc(N(C)C(=O)Cc2ccc(-c3ccccn3)cc2)sc1S(N)(=O)=O", "Measured Quantity": "pKi", "Value Measured": 7.21}
{"Compound": "Cc1nc(N(C)C(=O)Cc2ccc(-c3ccccn3)cc2)sc1S(N)(=O)=O [PRITELIVIR]", "Measured Quantity": "pKi", "Value Measured": 7.11}

* * *

Assay: Inhibition of carbonic anhydrase in mouse whole blood assessed as reduction in CO2 hydration preincubated for 15 mins prior to testing measured for 10 to 100 secs by stopped-flow assay
pIC50: −log10 of the molar value.
Measured Quantity: pIC50

{"Smi": "Cc1nc(N(C)C(=O)Cc2ccc(-c3ccccn3)cc2)sc1S(N)(=O)=O", "Measured Quantity": "pIC50", "Value Measured": 6.87}

* * *

// reported pKi per item
Target: Carbonic anhydrase 1 (Homo sapiens, UniProt P00915)
Sequence (P00915 whole entry): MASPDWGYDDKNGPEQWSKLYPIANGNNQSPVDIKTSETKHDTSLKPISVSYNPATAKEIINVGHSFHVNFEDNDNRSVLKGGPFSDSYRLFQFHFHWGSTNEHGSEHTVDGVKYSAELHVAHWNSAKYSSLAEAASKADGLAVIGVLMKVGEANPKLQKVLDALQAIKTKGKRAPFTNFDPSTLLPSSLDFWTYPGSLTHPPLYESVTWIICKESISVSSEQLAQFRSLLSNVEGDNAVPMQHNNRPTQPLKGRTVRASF
Test: Inhibition of recombinant human Carbonic anhydrase 1 assessed as reduction in CO2 hydration preincubated for 15 mins prior to testing measured for 10 to 100 secs by stopped-flow assay
pKi: −log10 of the molar value.
Measured Quantity: pKi

{"Compound": "Cc1nc(N(C)C(=O)Cc2ccc(-c3ccccn3)cc2)sc1S(N)(=O)=O [PRITELIVIR]", "Value Measured": 6.49}
{"Compound": "Cc1nc(N(C)C(=O)Cc2ccc(-c3ccccn3)cc2)sc1S(N)(=O)=O", "Value Measured": 6.58}

* * *

Target: UniProt:Q16790
Experiment: Inhibition of recombinant human Carbonic anhydrase 9 assessed as reduction in CO2 hydration preincubated for 15 mins prior to testing measured for 10 to 100 secs by stopped-flow assay
Measured Quantity: log10(Ki) (log10 of the value in µM)

{"Compound": "Cc1nc(N(C)C(=O)Cc2ccc(-n3cccn3)cc2)sc1S(N)(=O)=O", "log10(Ki)": -1.46}
{"Compound": "Cc1nc(N(C)C(=O)Cc2ccc(-c3ccccn3)cc2)sc1S(N)(=O)=O", "log10(Ki)": -0.33}
{"Compound": "COc1c(F)cccc1-c1ccc(CC(=O)N(C)c2nc(C)c(S(N)(=O)=O)s2)cc1", "log10(Ki)": -1.66}
{"Compound": "Cc1nc(N(C)C(=O)Cc2ccc(-c3cccc[n+]3C)cc2)sc1S(N)(=O)=O", "log10(Ki)": -0.58}
{"Compound": "Cc1nc(N(C)C(=O)Cc2ccc(-c3ccccn3)cc2)sc1S(N)(=O)=O [PRITELIVIR]", "log10(Ki)": -1.09}
{"Compound": "CCc1nc(N(C)C(=O)Cc2ccc(-c3ccccn3)cc2)sc1S(N)(=O)=O", "log10(Ki)": -1.55}
{"Compound": "Cc1nc(N(C)C(=O)Cc2ccc(-c3ccccc3F)cc2)sc1S(N)(=O)=O", "log10(Ki)": -2.00}
{"Compound": "Cc1nc(N(C(=O)Cc2ccc(-c3ccccc3)cc2)C2CC2)sc1S(N)(=O)=O", "log10(Ki)": -3.00}
{"Compound": "CNS(=O)(=O)c1sc(N(C)C(=O)Cc2ccc(-c3ccccc3)cc2)nc1C", "log10(Ki)": -1.39}
{"Compound": "CNS(=O)(=O)c1sc(N(C)C(=O)Cc2ccc(-c3ccccc3F)cc2)nc1C", "log10(Ki)": -1.59}
{"Compound": "Cc1nc(N(C)C(=O)Cc2ccc(-c3cnccn3)cc2)sc1S(N)(=O)=O", "log10(Ki)": -1.16}
{"Compound": "CN(C(=O)Cc1ccc(-c2ccccn2)cc1)c1nc(CO)c(S(N)(=O)=O)s1", "log10(Ki)": -1.37}
{"Compound": "Cc1nc(N(C)C(=O)Cc2ccc(-c3ccccc3)cc2)sc1S(=O)(=O)NCCO", "log10(Ki)": -1.35}
{"Compound": "Cc1nc(N(C)C(=O)Cc2ccc(-c3cc(F)ccc3F)cc2)sc1S(N)(=O)=O", "log10(Ki)": -1.29}
{"Compound": "CNS(=O)(=O)c1sc(N(CCN(C)C)C(=O)Cc2ccc(-c3ccccc3)cc2)nc1C", "log10(Ki)": -1.85}
{"Compound": "Cc1nc(N(C)C(=O)Cc2ccc(-c3ccccc3)cc2)sc1S(N)(=O)=O", "log10(Ki)": -3.05}
{"Compound": "Cc1nc(N(C)C(=O)Cc2ccc(-c3cccc(F)c3)cc2)sc1S(N)(=O)=O", "log10(Ki)": -3.05}
{"Compound": "Cc1nc(N(CCN(C)C)C(=O)Cc2ccc(-c3ccccc3)cc2)sc1S(N)(=O)=O", "log10(Ki)": -1.66}
{"Compound": "CNS(=O)(=O)c1sc(N(C)C(=O)Cc2ccc(-c3ccccn3)cc2)nc1C", "log10(Ki)": -1.61}
